# System: Cef-116
# Test Method Notes: Competitive indirect ELISA (ciELISA), competitor inhibition of MAb Cef-116 binding
# Set-up: species or system Balb/c mice
# Measurement Parameters: MAb Cef-116, final dilution 1:100; BSA-S-GMBS-Cef-coated plates; value ± standard deviation, average of 3-6 determinations
Known IC50 (ppb) Values for Antibodies, Cef-116 of a selection of compounds
Readout Type: IC50 (ppb) Values for Antibodies, Cef-116

INSERT INTO results (entry_smiles, system, value_units, recorded_result) VALUES
  ('CO/N=C(\C(=O)N[C@@H]1C(=O)N2C(C(=O)O)=C(COC(C)=O)CS[C@H]12)c1csc(N)n1', 'Cef-116', 'ppb', 0.48),
  ('CO/N=C(\C(=O)N[C@@H]1C(=O)N2C(C(=O)O)=C(CSc3nc(=O)c(=O)[nH]n3C)CS[C@H]12)c1csc(N)n1', 'Cef-116', 'ppb', 0.33),
  ('CO/N=C(\C(=O)N[C@@H]1C(=O)N2C(C(=O)O)=C(COC(N)=O)CS[C@H]12)c1ccco1', 'Cef-116', 'ppb', 406.67),
  ('CO/N=C(\C(=O)N[C@@H]1C(=O)N2C(C(=O)O)=C(CSC(=O)c3ccco3)CS[C@H]12)c1csc(N)n1', 'Cef-116', 'ppb', 0.33),
  ('CO/N=C(\C(=O)N[C@@H]1C(=O)N2C(C(=O)O)=C(Cn3nnc(C)n3)CS[C@H]12)c1csc(N)n1', 'Cef-116', 'ppb', 3.57);
